Target: spike protein of SARS-CoV-2 strain B.1.351 (SARS-CoV-2, UniProt P0DTC2 14-1273)
Assay: cell-based or functional assay
Measured property: IC50 (FRNT, live virus neutralisation)

- Binder: "antibody 278 (antibody, V domains shown) VH: QVQLVQSGAEVKKPGASVKVSCKASGYIFIRYGISWVRQAPGQGLEWMGWISANNGYTNYAQKLQGRVTMTTDTSTSTAYMELRSLRSDDTAVYYCARDGGILTGYLDYFDHWGQGTLVTVSS VL: DIQMTQSPSSLSASVGDRLTITCRASQSIASYLNWYQQKPGKAPKLLIYAASSLQSGVPSRFSGSGSGTDFTLTISSLQPEDFATYHCQQSYSTLGITFGPGTKVDIK"
  Recorded result: "0.16 µg/mL"
- Binder: "antibody 398 (antibody, V domains shown) VH: QVQLVESGGGLVQPGGSLRLSCAASGFTVSSNYMTWVRQAPGKGLEWVSVIYSGGSTYYADSVKGRFTISRDNSKNTLYLQMNSLRADDTAVYYCARDSTADYDFWSGYYVGAFHIWGQGTMVTVSS VL: QTVLTQPASVSGSPGQSITISCTGTSSDVGGYNYVSWYQQHPGKAPKLMIYEVTKRPSGVPDRFSGSKSGNTASLTVSGLQAEDEADYYCSSYAGSNNWVFGGGTKLTVL"
  Recorded result: "> 10 µg/mL"

The record that follows has no IC50 (FRNT, live virus neutralisation) shown yet.
Req: Suppose we examine the binder antibody 269 (antibody, V domains shown) VH: QVQLVESGGGLIQPGGSLRLSCAASGLTVNRNYMSWIRQAPGKGLEWVSVIYSGGSTFYADSVKGRFTISRDNSKNTLSLQMNSLRAEDTAIYYCARDFYEGSFDIWGQGTMVTVSS VL: AIQLTQSPSFLSASIGDRVTITCRASQGISSYLAWYQQKPGKAPKLLIYAASTLQSGVPSRFSGSGSGTEFTLTISSLQPEDFASYYCQQLNSYPAPVFGPGTKVDIK ; what IC50 (FRNT, live virus neutralisation) value has been reported?
Resp: > 10 µg/mL
